Test system: CCRIS mutagenicity, Ames/micronucleus/aberration tests
METHOD: CCRIS mutagenicity studies
TEST CONTEXT: Test System: AMES SALMONELLA TYPHIMURIUM; Strain/Indicator: TA98; Metabolic Activation: RAT, LIVER, S-9, AROCLOR 1254; Method: STANDARD PLATE
Calls of active or inactive are those of the source. The rule behind the calls is not given here.
Pick one and only one: active, inactive

Worked examples, 6 compounds total:
# COMPOUND, LABEL VALUE
data = [
    ("CCCCCCCCSCn1cc[n+](C)c1", "inactive"),
    ("O=c1[nH]cc2ccc3cccc4ccc1c2c34", "inactive"),
    ("COc1cc([N+](=O)[O-])c(O)c(C(C)(C)C)c1", "inactive"),
    ("O=NN1CSCC1C(=O)O (configuration not stated)", "inactive"),
    ("C=C(C)C(=O)OCCCCCOC(=O)C(=C)C", "inactive"),
    ("O=C(O)/C=C(/CC(=O)O)C(=O)O", "inactive"),
]

Here is another compound to look at.
Recorded call for CCN(CC)c1ccc(N=Nc2ccc([N+](=O)[O-])cc2C#N)cc1 ?
active

* * *

Test system: CCRIS mutagenicity, Ames/micronucleus/aberration tests
METHOD: CCRIS mutagenicity studies
TEST CONTEXT: Test System: AMES SALMONELLA TYPHIMURIUM; Strain/Indicator: TA104; Metabolic Activation: NONE; Method: STANDARD PLATE
Active and inactive are the calls of the source. How the calls were made is not given here.
MEASUREMENT KIND: mutagenic call

// below: answered compounds
# COMPOUND, MEASUREMENT TARGET, mutagenic call
data = [
    ("ClCCCCl", "CCRIS mutagenicity, Ames/micronucleus/aberration tests", "inactive; negative"),
    ("CC[C@@]1(O)C[C@H](O[C@H]2C[C@H](N(C)C)[C@H](O[C@H]3C[C@H](O)[C@H](O[C@H]4C[C@H](O)[C@H](O)[C@H](C)O4)[C@H](C)O3)[C@H](C)O2)c2c(cc3c(c2O)C(=O)c2c(O)ccc(O)c2C3=O)[C@H]1C(=O)OC", "CCRIS mutagenicity, Ames/micronucleus/aberration tests", "active; positive"),
    ("Nc1cccc([N+](=O)[O-])c1N", "CCRIS mutagenicity, Ames/micronucleus/aberration tests", "active; positive"),
    ("COc1cc(NC(C)CCCN)c2ncccc2c1 (stereo unspecified)", "CCRIS mutagenicity, Ames/micronucleus/aberration tests", "inactive; negative"),
    ("Cc1occc(=O)c1O", "CCRIS mutagenicity, Ames/micronucleus/aberration tests", "inactive; negative"),
]

// below: mutagenic call requested for another compound
Assign mutagenic call to the following record: CC(Cl)(Cl)Cl
inactive; negative

* * *

Test system: CCRIS mutagenicity, Ames/micronucleus/aberration tests
METHOD: CCRIS mutagenicity studies
TEST CONTEXT: Test System: AMES SALMONELLA TYPHIMURIUM; Strain/Indicator: TA104; Metabolic Activation: RAT LIVER S-9, PCB; Method: PREINCUBATION
Calls of active or inactive are those of the source. How the calls were made is not given here.
Pick one and only one: class 1 (active), class 0 (inactive)

Worked examples, 4 molecules total:
# MOLECULE, LABEL VALUE
records = [
    ("O=C(Cl)C(Cl)c1ccccc1 (stereo not given)", "class 1"),
    ("O=C(Cl)Cc1ccccc1", "class 1"),
    ("O=Cc1cccc(Cl)c1Cl", "class 0"),
    ("O=C(O)c1cc(Cl)ccc1Cl", "class 0"),
]

Here is another molecule to look at.
Recorded call for Cc1ccc(C(=O)Cl)cc1 ?
class 1

* * *

Test system: CCRIS mutagenicity, Ames/micronucleus/aberration tests
METHOD: CCRIS mutagenicity studies
TEST CONTEXT: Test System: AMES SALMONELLA TYPHIMURIUM; Strain/Indicator: TA98; Metabolic Activation: RAT, LIVER, S-9, AROCLOR 1254; Method: STANDARD PLATE
Calls of active or inactive are those of the source. The rule behind the calls is not given here.
Pick one and only one: y for active, n for inactive

# COMPOUND, LABEL VALUE
measured = [
    ("Cc1cc(C(O)c2ncc([N+](=O)[O-])n2C)c(O)c(C(C)(C)C)c1 (configuration not stated)", "n"),
    ("FC(F)C(F)(F)F", "n"),
    ("CCC[C@]1(O)CC[C@H]2[C@@H]3CC[C@H]4CC(=O)C[C@H](C)[C@]4(C)[C@H]3CC[C@@]21C", "n"),
]

Recorded call for c1cc2ccc3cccc4ccc(c1)c2c34 ?
n

Recorded call for Oc1ccc(-c2ccccc2)cc1 ?
y

Recorded call for [Cl][Cr]([Cl])[Cl] ?
n

Recorded call for Nc1ccc(O)c2c1C(=O)c1ccccc1C2=O ?
n

Recorded call for CC(C)C(=O)N(O)c1ccc(Cl)cc1 ?
y

Recorded call for O=CC(=O)c1ccccc1 ?
y

Recorded call for C=Cc1ccccn1 ?
n

* * *

System: CCRIS mutagenicity, Ames/micronucleus/aberration tests
METHOD: CCRIS mutagenicity studies
TEST CONTEXT: Test System: AMES SALMONELLA TYPHIMURIUM; Strain/Indicator: TA100; Metabolic Activation: RAT, LIVER, S-9, AROCLOR 1254; Method: STANDARD PLATE
Calls of active or inactive are those of the source. How the calls were made is not given here.
Pick one and only one: YES (active), NO (inactive)

Worked examples, 2 compounds total:
# STRUCTURE, LABEL VALUE
records = [
    ("CCCOc1cc(N=Nc2ccc(N(CC)CC)cc2)ccc1N=Nc1c(S(=O)(=O)O)cc2ccc(N)cc2c1O", "NO"),
    ("CN1CCN(C2=Nc3ccccc3Oc3ccc(Cl)cc32)CC1", "NO"),
]

Recorded call for CCBr ?
YES

Recorded call for O=c1[nH]c(=O)n([C@H]2C[C@H](O)[C@@H](CO)O2)cc1/C=C/Br ?
NO

Recorded call for O=C(c1ccc([N+](=O)[O-])cc1)n1ncc(Cl)c(Cl)c1=O ?
YES

Recorded call for Clc1ccc2ccc3cccc4ccc1c2c34 ?
YES

Recorded call for N#CC1=C(C#N)SCCS1 ?
NO

* * *

Tested on: CCRIS mutagenicity, Ames/micronucleus/aberration tests
METHOD: CCRIS mutagenicity studies
TEST CONTEXT: Test System: AMES SALMONELLA TYPHIMURIUM; Strain/Indicator: TA100; Metabolic Activation: RAT, LIVER, S-9, AROCLOR 1254; Method: STANDARD PLATE
Activity calls are given as the source filed them. No rule for the calls is given here.
Pick one and only one: active, inactive

Worked examples, 2 compounds total:
# COMPOUND, LABEL VALUE
records = [
    ("Cn1cnc2c1c(=O)[nH]c(=O)n2C", "inactive"),
    ("O=S(=O)(Oc1ccc(Cl)c(Cl)c1)c1cccc2cccnc12", "active"),
]

Recorded call for Cc1cc(C)c2ccc3ccccc3c2c1 ?
active

Recorded call for CCOC(=O)c1cccc2cccnc12 ?
inactive

Recorded call for c1ccc2c(c1)ccc1ccccc12 ?
active

Recorded call for CC(=O)N(O)c1ccccc1C ?
inactive

* * *

Test system: CCRIS mutagenicity, Ames/micronucleus/aberration tests
METHOD: CCRIS mutagenicity studies
TEST CONTEXT: Test System: AMES SALMONELLA TYPHIMURIUM; Strain/Indicator: TA98; Metabolic Activation: RAT LIVER S-9, AROCLOR 1254; Method: FLUCTUATION (MICROTITER)
The source made the active and inactive calls. No rule for the calls is given here.

# COMPOUND, MEASUREMENT TARGET, mutagenic call
measured = [
    ("O=Cc1ccccc1", "CCRIS mutagenicity, Ames/micronucleus/aberration tests", "inactive; negative"),
    ("Oc1ccccc1", "CCRIS mutagenicity, Ames/micronucleus/aberration tests", "inactive; negative"),
    ("CC(O)CCl (centres undefined)", "CCRIS mutagenicity, Ames/micronucleus/aberration tests", "inactive; negative"),
]

* * *

System: CCRIS mutagenicity, Ames/micronucleus/aberration tests
METHOD: CCRIS mutagenicity studies
TEST CONTEXT: Test System: E. COLI; Strain/Indicator: WP2 UVRA; Metabolic Activation: RAT, LIVER, S-9, AROCLOR 1254; Method: STANDARD PLATE
Excerpt: The CCRIS database contains chemical records with carcinogenicity, mutagenicity, tumor promotion, and tumor inhibition test results. It was developed by the National Cancer Institute (NCI). Data are derived from studies cited in primary journals, current awareness tools, NCI reports, and other sources. Test results have been reviewed by experts in carcinogenesis and mutagenesis. CCRIS provides historical information from the years 1985 - 2011. It is no longer updated. […]
The source made the active and inactive calls. No rule for the calls is given here.
Pick one and only one: active, inactive

# MOLECULE, LABEL VALUE
measured = [
    ("CCOc1ccc(NC(C)=O)cc1", "inactive"),
    ("O=P1(N(CCCl)CCCl)NCCCO1 (centres undefined)", "inactive"),
    ("NC(N)=S", "inactive"),
]

Recorded call for Nc1ccccc1 ?
inactive

Recorded call for O=[N+]([O-])c1cccc2ccccc12 ?
inactive

Recorded call for FC(F)C(F)(F)F ?
inactive
